biological target: IDH1-R132H (Homo sapiens, UniProt O75874, R132H); experiment: Fluorescent determination of IDH1-R132H cell activity (2-HG in U87MGR132H cells); details: 2-HG inhibition in U87MGR132H cells transfected with IDH1-R132H mutant plasmid
Sequence (O75874 whole entry R132H): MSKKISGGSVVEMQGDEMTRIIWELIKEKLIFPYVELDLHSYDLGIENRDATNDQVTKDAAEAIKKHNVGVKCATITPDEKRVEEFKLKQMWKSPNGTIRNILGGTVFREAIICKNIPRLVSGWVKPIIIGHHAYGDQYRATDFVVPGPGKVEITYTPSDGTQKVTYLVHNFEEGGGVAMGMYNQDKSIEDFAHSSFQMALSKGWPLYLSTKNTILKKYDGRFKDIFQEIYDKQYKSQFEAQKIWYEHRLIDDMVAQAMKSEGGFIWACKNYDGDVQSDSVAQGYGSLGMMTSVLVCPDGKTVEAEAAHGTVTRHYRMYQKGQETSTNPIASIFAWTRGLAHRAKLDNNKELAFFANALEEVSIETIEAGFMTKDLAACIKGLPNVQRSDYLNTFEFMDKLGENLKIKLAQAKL
pIC50: −log10 of the molar value.

COMPOUND | COMPARATIVE_SIGN | pIC50
[2H]C1(O)CCCC(c2nc(NC3CC(F)(F)C3)nc(NC3CC(F)(F)C3)n2)=C1F (stereo not shown) [Compound 19] | = | 6.38
C[C@@H](Nc1nc(NC2CCC(F)(F)C2)nc(C2=CC(O)CCC2)n1)C(F)(F)F (mixture of isomers) [Compound 177] | = | 7.03
CC(C)Nc1nc(Nc2ccc3ccnn3c2)nc(C2=C(F)C(O)CCC2)n1 (racemic) [Compound 200] | < | 5.00
CC(C)[C@@H](C)Nc1nc(N[C@H](C)C(F)(F)F)nc(C2=C(F)C(O)CCC2)n1 (mixture of isomers) [Compound 163] | = | 6.09

###

target: IDH1-R132H (Homo sapiens, UniProt O75874, R132H); assay: Fluorescent determination of IDH1-R132H cell activity (2-HG in U87MGR132H cells); details: 2-HG inhibition in U87MGR132H cells transfected with IDH1-R132H mutant plasmid
pIC50: −log10 of the molar value.
Listed compounds paired with reported pIC50
PROPERTY_LABEL: pIC50

COMPOUND | EXPERIMENTAL_SYSTEM | PROPERTY_LABEL | COMPARATIVE_SIGN | REPORTED_VALUE
CC(C)Nc1nc(Nc2ccc3c(cnn3C)c2)nc(C2=C(F)C(O)CCC2)n1 (stereo not shown) | IDH1-R132H (Homo sapiens, UniProt O75874, R132H) | pIC50 | < | 5.00
C[C@@H](Nc1nc(NC(C)(C)C)nc(C2=CC(O)CCC2)n1)C(F)(F)F (mixture of isomers) | IDH1-R132H (Homo sapiens, UniProt O75874, R132H) | pIC50 | = | 5.65
C[C@@H](Nc1nc(N[C@H](C)C(F)(F)F)nc(C2=C(F)C(O)CCC2)n1)c1ccccc1 (mixture of isomers) | IDH1-R132H (Homo sapiens, UniProt O75874, R132H) | pIC50 | = | 5.70
CC(C)Nc1nc(Nc2ccc3ccccc3n2)nc(C2=C(F)C(O)CCC2)n1 (stereo not shown) | IDH1-R132H (Homo sapiens, UniProt O75874, R132H) | pIC50 | = | 5.57

###

# solubility at 1 h values compiled below
assay: Determination of solubility in sodium phosphate buffers; type: physicochemical; settings: aqueous buffer, thermodynamic from solid; pH 2.1 sodium phosphate buffer; read-out: Solubility pH 2.1

COMPOUND | solubility at 1 h [µg/mL]
C[C@@H](Nc1nc(N[C@H](C)C(F)(F)F)nc(C2=C(F)C(O)C3(CC2)CC3)n1)C(F)(F)F (mixture of isomers) [Compound 219] | 190
C[C@@H](Nc1nc(Nc2ccc3cccnc3c2)nc(C2=C(F)C(O)CCC2)n1)C(F)(F)F (stereo partly shown) [Compound 68] | 141
CC(C)(C)ONc1nc(Nc2ccnc(C(F)(F)F)c2)nc(C2=C(F)C(O)CCC2)n1 (stereo not shown) [Compound 71] | 64
OC1CCCCC(c2nc(NC3CC(F)(F)C3)nc(NC3CC(F)(F)C3)n2)=C1F (stereo not shown) [Compound 20] | 570

###

Target: IDH2-R140Q (Homo sapiens, UniProt P48735, R140Q)
Sequence (P48735 40-452 R140Q): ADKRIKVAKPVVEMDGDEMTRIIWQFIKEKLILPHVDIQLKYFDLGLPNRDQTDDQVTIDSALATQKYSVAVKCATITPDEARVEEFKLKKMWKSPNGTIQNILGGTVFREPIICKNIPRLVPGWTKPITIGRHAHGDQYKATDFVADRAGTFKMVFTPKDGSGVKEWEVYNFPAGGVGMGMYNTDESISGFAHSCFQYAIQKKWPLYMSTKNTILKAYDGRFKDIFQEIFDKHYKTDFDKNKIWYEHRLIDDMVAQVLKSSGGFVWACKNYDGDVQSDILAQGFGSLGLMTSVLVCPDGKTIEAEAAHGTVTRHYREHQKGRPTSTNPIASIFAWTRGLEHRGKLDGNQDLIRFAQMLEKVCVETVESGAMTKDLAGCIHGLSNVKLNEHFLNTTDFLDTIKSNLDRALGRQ
Assay: Fluorescent determination of IDH2-R140Q cell activity (2-HG in U87MGR140Q cells)
Conditions: 72 hours incubation, read-out: IC50 (2-HG inhibition)
Method: Enzyme reaction solution: 1 mM nicotinamide adenine dinucleotide (NAD), 0.6 ng/μL D-2-hydroxyglutarate dehydrogenase (D2HGDH), 0.8 U/mL lipoamidase dehydrogenase (Diaphorase) and 60 μM Resazurin in 40 mM Tris.HCl pH 8.8 assay buffer. […] The inhibition ratio was calculated as follows: Inhibition Ratio (IH %)=(1-2-HG concentration of test compound treated cells/2-HG concentration of control cells)×100%.
pIC50: −log10 of the molar value.
PROPERTY_LABEL: pIC50

COMPOUND | EXPERIMENTAL_SYSTEM | REPORTED_VALUE
CCCNc1nc(N[C@H](C)C(F)(F)F)nc(C2=C(F)C(O)C(F)(F)CC2)n1 (mixture of isomers) [Compound 210] | IDH2-R140Q (Homo sapiens, UniProt P48735, R140Q) | 7.03
C[C@@H](Nc1nc(NC2CCC2)nc(C2=C(F)C(O)CCC2)n1)C(F)(F)F (mixture of isomers) | IDH2-R140Q (Homo sapiens, UniProt P48735, R140Q) | 7.06
C[C@@H](Nc1nc(NCC(F)(F)F)nc(C2=C(F)C(O)C(F)(F)CC2)n1)C(F)(F)F (mixture of isomers) | IDH2-R140Q (Homo sapiens, UniProt P48735, R140Q) | 6.99
CCC(Nc1nc(N[C@H](C)C(F)(F)F)nc(C2=C(F)C(O)CCC2)n1)C(F)(F)F (mixture of isomers) | IDH2-R140Q (Homo sapiens, UniProt P48735, R140Q) | 6.59
C[C@@H](Nc1nc(NC2CCC(F)(F)C2)nc(C2=C(F)C(O)CCC2)n1)C(F)(F)F (mixture of isomers) | IDH2-R140Q (Homo sapiens, UniProt P48735, R140Q) | 6.94
CCCONc1nc(Nc2ccnc(C(F)(F)F)c2)nc(C2=C(F)C(O)C(F)(F)CC2)n1 (stereo not shown) | IDH2-R140Q (Homo sapiens, UniProt P48735, R140Q) | 7.16
C[C@@H](Nc1nc(N[C@H](C)C(F)(F)F)nc(C2=C(F)C(O)C3(CC2)CC3)n1)C(F)(F)F (mixture of isomers) | IDH2-R140Q (Homo sapiens, UniProt P48735, R140Q) | 6.15
CC(C)(C)ONc1nc(Nc2ccnc(Cl)c2)nc(C2=C(F)C(O)C(F)(F)CC2)n1 (stereo not shown) | IDH2-R140Q (Homo sapiens, UniProt P48735, R140Q) | 7.09
[2H]C([2H])([2H])C([2H])(Nc1nc(NC2CC(F)(F)C2)nc(C2=C(F)C(O)CCC2)n1)C([2H])([2H])[2H] (stereo not shown) | IDH2-R140Q (Homo sapiens, UniProt P48735, R140Q) | 6.99
CCNc1nc(N[C@H](C)C(F)(F)F)nc(C2=CC(O)CCC2)n1 (mixture of isomers) | IDH2-R140Q (Homo sapiens, UniProt P48735, R140Q) | 6.47
C[C@H](CF)Nc1nc(N[C@H](C)C(F)(F)F)nc(C2=C(F)C(O)CCC2)n1 (mixture of isomers) | IDH2-R140Q (Homo sapiens, UniProt P48735, R140Q) | 6.13
CC(C)Nc1nc(N[C@H](C)C(F)(F)F)nc(C2=CC(F)(F)CCC2)n1 | IDH2-R140Q (Homo sapiens, UniProt P48735, R140Q) | 6.30
C[C@@H](Nc1nc(N[C@H](C)C(F)(F)F)nc(C2=C(F)C(O)C(Cl)CC2)n1)C(F)(F)F (mixture of isomers) | IDH2-R140Q (Homo sapiens, UniProt P48735, R140Q) | 6.26
C[C@@H](Nc1nc(N[C@H](C)C(F)(F)F)nc(C2=C(F)C(O)C(F)(F)CC2)n1)C(F)(F)F (mixture of isomers) [Compound 196] | IDH2-R140Q (Homo sapiens, UniProt P48735, R140Q) | 7.03
C[C@@H](Nc1nc(NC2CC(F)(F)C2)nc(C2=C(F)C(O)C(F)CC2)n1)C(F)(F)F (single isomer, unassigned) [Compound 227] | IDH2-R140Q (Homo sapiens, UniProt P48735, R140Q) | 7.32
CC(C)(C)ONc1nc(Nc2ccnc(C(F)(F)F)c2)nc(C2=C(F)C(O)CCC2)n1 (stereo not shown) | IDH2-R140Q (Homo sapiens, UniProt P48735, R140Q) | 7.30

###

molecular target: IDH1-R132H (Homo sapiens, UniProt O75874, R132H); assay: Fluorescent determination of IDH1-R132H cell activity (2-HG in U87MGR132H cells); settings: 2-HG inhibition in U87MGR132H cells transfected with IDH1-R132H mutant plasmid
pIC50: −log10 of the molar value.

COMPOUND | COMPARATIVE_SIGN | pIC50
C[C@@H](Nc1nc(NC2CCCC2)nc(C2=CC(O)CCC2)n1)C(F)(F)F (mixture of isomers) [Compound 130] | = | 6.13
C[C@H](Nc1nc(N[C@@H](C)C(F)(F)F)nc(C2=C(F)C(O)C(F)(F)CC2)n1)C(F)(F)F (mixture of isomers) [Compound 283] | = | 5.88
C[C@@H](Nc1nc(C2=C(F)C(O)C(F)(F)CC2)nc(N2CC(F)(F)C2)n1)C(F)(F)F (stereo partly shown) [Compound 243] | < | 5.00
C[C@@H](Nc1nc(NC2CC(F)(F)C2)nc(C2=C(F)C(O)CCC2)n1)C(F)(F)F (mixture of isomers) [Compound 31] | = | 6.55
C[C@@H](CF)Nc1nc(N[C@H](C)C(F)(F)F)nc(C2=C(F)C(O)CCC2)n1 (mixture of isomers) [Compound 170] | = | 5.16
C[C@@H](Nc1nc(NC2CC2)nc(C2=C(F)C(O)C(F)(F)CC2)n1)C(F)(F)F (mixture of isomers) [Compound 238] | = | 5.13
[2H]C1([2H])CCC(c2nc(NOC(C)(C)C)nc(Nc3ccnc(C(F)(F)F)c3)n2)=C(F)C1O (stereo not shown) [Compound 89] | = | 5.53
C[C@@H](Nc1nc(N[C@H](C)C(F)(F)F)nc(C2=CC(O)C(F)(F)CC2)n1)C(F)(F)F (mixture of isomers) [Compound 281] | = | 6.34
CC(C)(O)CNc1nc(Nc2ccn3nccc3c2)nc(C2=C(F)C(O)CCC2)n1 (stereo not shown) [Compound 67] | < | 5.00
Cc1cc(Nc2nc(NOC(C)(C)C)nc(C3=C(F)C(O)CCC3)n2)ccn1 (stereo not shown) [Compound 204] | < | 5.00
[2H]C1(O)C(F)=C(c2nc(NOC(C)(C)C)nc(Nc3ccnc(C(F)(F)F)c3)n2)CCC1(F)F (stereo not shown) [Compound 276] | = | 5.08
OC1C(F)=C(c2nc(Nc3ccnc(C(F)(F)F)c3)nc(N3CC(F)(F)C3)n2)CCC1(F)F (single isomer, unassigned) [Compound 221] | < | 5.00
C[C@@H](Nc1nc(NC2CC(F)(F)C2)nc(C2=C(F)C(O)C(F)CC2)n1)C(F)(F)F (single isomer, unassigned) [Compound 228] | = | 6.15
C[C@@H](Nc1nc(NCC2CC(F)(F)C2)nc(C2=C(F)C(O)CCC2)n1)C(F)(F)F (mixture of isomers) [Compound 13] | = | 5.68
OC1C(F)=C(c2nc(NOCC3CC3)nc(Nc3ccnc(C(F)(F)F)c3)n2)CCC1(F)F (stereo not shown) [Compound 213] | < | 5.00
[2H]C1(O)CCCC(c2nc(N[C@H](C)C(F)(F)F)nc(N[C@H](C)C(F)(F)F)n2)=C1F (mixture of isomers) [Compound 18] | = | 6.66
CC(C)(C)ONc1nc(Nc2ccnc(Cl)c2)nc(C2=C(F)C(O)C(F)(F)CC2)n1 (stereo not shown) [Compound 216] | = | 5.07
C[C@@H](Nc1nc(N[C@H](C)C(F)(F)F)nc(C2=C(F)C(O)CCC2)n1)C1CC1 (mixture of isomers) [Compound 158] | = | 5.82
C[C@H](Nc1nc(N[C@H](C)C(F)(F)F)nc(C2=C(F)C(O)CCC2)n1)c1ccccc1 (mixture of isomers) [Compound 157] | = | 5.36
[2H]C1(O)C(F)=C(c2nc(NC3CC3)nc(N[C@@H](C)C(F)(F)F)n2)CCC1(F)F (mixture of isomers) [Compound 278] | < | 5.00
C[C@@H](Nc1nc(NC2CC(F)(F)C2)nc(C2=C(F)C(O)C(F)CC2)n1)C(F)(F)F (single isomer, unassigned) [Compound 227] | = | 7.09
CC(C)Nc1nc(N[C@H](C)C(F)(F)F)nc(C2=CC(O)CCC2)n1 (mixture of isomers) [Compound 124] | = | 6.18
C[C@@H](Nc1nc(NCC2CC2)nc(C2=C(F)C(O)C(F)(F)CC2)n1)C(F)(F)F (mixture of isomers) [Compound 209] | = | 5.75
C[C@@H](Nc1nc(N[C@H](C)C(F)(F)F)nc(C2=C(F)C(O)CCC2)n1)C(F)(F)F (stereo partly shown) [Compound 82] | = | 6.74
C[C@@H](Nc1nc(NCCF)nc(C2=C(F)C(O)CCC2)n1)C(F)(F)F (stereo partly shown) [Compound 240] | < | 5.00
CONc1nc(N[C@H](C)C(F)(F)F)nc(C2=C(F)C(O)C(F)(F)CC2)n1 (mixture of isomers) [Compound 297] | < | 5.00
CC(C)(C)ONc1nc(Nc2ccnc(C(F)(F)F)c2)nc(C2=C(F)C(O)C(F)(F)CC2)n1 (stereo not shown) [Compound 275] | = | 5.10
CC(C)Nc1nc(N[C@H](C)C(F)(F)F)nc(C2=C(F)C(O)C(F)(F)CC2)n1 (stereo partly shown) [Compound 94] | = | 5.94
